# system under test: HCV NS3/4A 1b protease enzyme (wild type) (Hepatitis C virus genotype 1b, UniProt P26663)
# Construct: 10× stocks of NS3/4A protease enzyme from Bioenza (Mountain View, Calif.); purchased Bioenza
# Sequence (P26663 1658-1711): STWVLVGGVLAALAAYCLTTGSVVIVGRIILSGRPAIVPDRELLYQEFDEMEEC
# Sequence (P26663 1027-1657): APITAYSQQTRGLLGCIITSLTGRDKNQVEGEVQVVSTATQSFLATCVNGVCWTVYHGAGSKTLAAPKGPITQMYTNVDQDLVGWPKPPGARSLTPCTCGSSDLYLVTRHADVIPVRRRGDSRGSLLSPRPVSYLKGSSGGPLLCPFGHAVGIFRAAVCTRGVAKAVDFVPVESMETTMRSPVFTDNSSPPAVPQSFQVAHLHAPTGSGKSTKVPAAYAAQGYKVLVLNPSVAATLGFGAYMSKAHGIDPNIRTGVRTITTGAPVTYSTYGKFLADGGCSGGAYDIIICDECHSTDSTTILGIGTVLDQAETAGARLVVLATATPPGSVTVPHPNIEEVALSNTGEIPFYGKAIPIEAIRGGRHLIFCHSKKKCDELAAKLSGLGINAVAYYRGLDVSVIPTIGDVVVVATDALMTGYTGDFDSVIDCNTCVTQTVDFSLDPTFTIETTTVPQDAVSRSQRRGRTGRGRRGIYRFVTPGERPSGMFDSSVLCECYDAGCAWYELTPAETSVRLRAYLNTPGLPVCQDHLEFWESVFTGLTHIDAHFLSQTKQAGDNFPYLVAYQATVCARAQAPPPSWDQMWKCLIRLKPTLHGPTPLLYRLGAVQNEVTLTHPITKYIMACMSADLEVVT
# test: HCV protease FRET assay (IC50_APP), wild type NS3/4A 1b
# Type: biochemical
measurement kind: IC50

# count of solved cases: 4
{"molecule": "C=C[C@@H]1C[C@]1(NC(=O)[C@@H]1CC(Oc2nccc3cc(OC)ccc23)CN1C(=O)[C@H](CCC(=O)N1C[C@@H]2CC[C@H]1C(=O)O2)NC(=O)OC(C)(C)C)C(=O)NS(=O)(=O)C1CC1 (some centres unmarked) [XVI-3]", "result": "< 1 nM"}
{"molecule": "C=C[C@@H]1C[C@]1(NC(=O)[C@@H]1CC(OC(=O)N2Cc3cccc(F)c3C2)CN1C(=O)[C@H](CCC(=O)N1C[C@@H]2C[C@H]1C(=O)O2)NC(=O)OC(C)(C)C)C(=O)NS(=O)(=O)C1CC1 (some centres unmarked) [XVI-17]", "result": "< 1 nM"}
{"molecule": "C=C[C@@H]1C[C@]1(NC(=O)[C@@H]1CC(Oc2nccc3cc(OC)ccc23)CN1C(=O)[C@H](CC(=O)N1C[C@@H]2C[C@H]1C(=O)O2)NC(=O)OC(C)(C)C)C(=O)NS(=O)(=O)C1CC1 (some centres unmarked) [XVI-7]", "result": "1 to 10 nM"}
{"molecule": "C=C[C@@H]1C[C@]1(NC(=O)[C@@H]1CC(OC(=O)N2Cc3cccc(F)c3C2)CN1C(=O)[C@H](CCNC(=O)[C@@H]1CCC(=O)O1)NC(=O)OC(C)(C)C)C(=O)NS(=O)(=O)C1CC1 (some centres unmarked) [XVI-11]", "result": "100 to 1000 nM"}

Read the next record carefully.
Problem: Kindly indicate its recorded IC50. Item: C=C[C@@H]1C[C@]1(NC(=O)[C@@H]1CC(OC(=O)N2Cc3cccc(F)c3C2)CN1C(=O)[C@H](CN(C)C(=O)[C@H]1CCC(=O)O1)NC(=O)OC(C)(C)C)C(=O)NS(=O)(=O)C1CC1 (some centres unmarked) [XVI-18]
Result: 1 to 10 nM

---

What IC50 was measured for each of the following?
# system under test: p110α/p85α (PI3Kα) (Homo sapiens)
# Construct: purchased BPS Bioscience or Millipore 40620 (BPS Bioscience) or 14-602 (Millipore)
# Sequence (P42336 whole entry): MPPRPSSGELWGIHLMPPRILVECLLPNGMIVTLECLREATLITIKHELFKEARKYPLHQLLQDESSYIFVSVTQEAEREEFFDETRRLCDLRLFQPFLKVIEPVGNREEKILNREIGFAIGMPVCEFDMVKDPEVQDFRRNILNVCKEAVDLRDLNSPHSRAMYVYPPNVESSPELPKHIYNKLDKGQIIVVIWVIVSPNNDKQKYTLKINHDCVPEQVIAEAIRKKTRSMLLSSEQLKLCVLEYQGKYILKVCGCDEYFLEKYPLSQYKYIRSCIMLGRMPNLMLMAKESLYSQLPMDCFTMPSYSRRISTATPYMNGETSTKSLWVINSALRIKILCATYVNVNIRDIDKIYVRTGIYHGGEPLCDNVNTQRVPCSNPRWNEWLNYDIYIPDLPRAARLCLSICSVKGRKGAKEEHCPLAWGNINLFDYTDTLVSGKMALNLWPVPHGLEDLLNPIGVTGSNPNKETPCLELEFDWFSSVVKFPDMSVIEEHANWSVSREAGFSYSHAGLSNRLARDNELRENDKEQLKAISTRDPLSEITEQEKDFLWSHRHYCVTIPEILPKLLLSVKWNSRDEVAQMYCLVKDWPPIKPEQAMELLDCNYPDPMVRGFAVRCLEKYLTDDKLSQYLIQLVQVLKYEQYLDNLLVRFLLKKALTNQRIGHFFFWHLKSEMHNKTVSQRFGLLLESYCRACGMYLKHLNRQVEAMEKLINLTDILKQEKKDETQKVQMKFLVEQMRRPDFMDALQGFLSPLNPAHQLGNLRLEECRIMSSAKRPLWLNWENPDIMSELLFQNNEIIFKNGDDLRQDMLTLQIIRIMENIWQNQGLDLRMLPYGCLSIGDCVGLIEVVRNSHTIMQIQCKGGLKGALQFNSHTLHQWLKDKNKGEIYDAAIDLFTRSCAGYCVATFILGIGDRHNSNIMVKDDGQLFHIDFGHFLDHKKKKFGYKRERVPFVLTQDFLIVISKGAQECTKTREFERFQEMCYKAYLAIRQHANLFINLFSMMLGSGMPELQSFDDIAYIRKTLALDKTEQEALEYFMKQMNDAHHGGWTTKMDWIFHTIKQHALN
# Sequence (P27986 whole entry partner): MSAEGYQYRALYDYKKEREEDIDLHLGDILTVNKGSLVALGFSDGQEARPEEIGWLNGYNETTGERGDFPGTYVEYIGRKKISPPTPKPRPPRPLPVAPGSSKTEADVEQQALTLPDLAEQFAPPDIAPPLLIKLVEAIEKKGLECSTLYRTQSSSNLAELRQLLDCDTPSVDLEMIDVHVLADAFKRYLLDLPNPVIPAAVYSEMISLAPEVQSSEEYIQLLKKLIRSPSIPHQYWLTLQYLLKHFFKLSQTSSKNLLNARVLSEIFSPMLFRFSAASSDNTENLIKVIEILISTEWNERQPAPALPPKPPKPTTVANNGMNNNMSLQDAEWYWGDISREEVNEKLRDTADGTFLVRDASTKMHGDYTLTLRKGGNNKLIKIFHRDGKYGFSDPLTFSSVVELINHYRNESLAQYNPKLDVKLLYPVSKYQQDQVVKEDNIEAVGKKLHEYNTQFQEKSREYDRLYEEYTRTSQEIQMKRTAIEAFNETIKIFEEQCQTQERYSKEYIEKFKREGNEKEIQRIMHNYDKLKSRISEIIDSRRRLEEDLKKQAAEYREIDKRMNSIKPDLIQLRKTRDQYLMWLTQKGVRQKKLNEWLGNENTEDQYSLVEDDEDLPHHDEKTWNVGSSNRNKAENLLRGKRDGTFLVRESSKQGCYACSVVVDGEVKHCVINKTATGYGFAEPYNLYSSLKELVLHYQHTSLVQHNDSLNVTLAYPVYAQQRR
# test: HTRF assay, p110α/p85α
# Type: biochemical
# condition info: read-out: PI3Kα-HTRF-IC50 nM Inhibition Designation

{"compound": "C=CS(=O)(=O)N1CCN(Cc2cc3nc(-c4cccc5[nH]ncc45)nc(N4CCOCC4)c3s2)CC1 [XXII-8]", "system under test": "p110α/p85α (PI3Kα) (Homo sapiens)", "result": "100 to 1000 nM"}

Consider the following items and state reported IC50 for each.
1. C=CC(=O)n1cc(-c2ccc3c(c2)N(c2nc4c(s2)C(=O)NC(C)(C)C4)CCO3)cn1 [XXIII-5]
2. C=CS(=O)(=O)Oc1cccc(-c2nc(N3CCOCC3)c3sc(CN(C)S(=O)(=O)C=C)cc3n2)c1 [XXII-9]
3. O=C1CC[C@H](C(=O)N2CCN(c3ccnc4ccc(/C=C5\SC(Nc6c(Cl)cccc6Cl)=NC5=O)cc34)CC2)O1 [XXIV-1]
4. CC1(C)Cc2nc(N3CCOc4ccc(NC(=O)[C@@H]5CCC(=O)O5)cc43)sc2C(=O)N1 [XXIII-1]
5. O=C1CC[C@@H](C(=O)N2CCN(c3ccnc4ccc(/C=C5\SC(Nc6c(Cl)cccc6Cl)=NC5=O)cc34)CC2)O1 [XXIV-2]

Result:
100 to 1000 nM
100 to 1000 nM
10 to 100 nM
100 to 1000 nM
100 to 1000 nM

Problem: Kindly indicate its recorded IC50. Item: CC(C)Oc1c(N(C)Cc2cc3nc(-c4cccc(O)c4)nc(N4CCOCC4)c3s2)c(=O)c1=O [XXII-11]
Result: 10 to 100 nM
